- target: Dual specificity tyrosine-phosphorylation-regulated kinase 1A (Homo sapiens)
- assaySummary: Inhibition of EGFP-tagged DYRK1A (unknown origin) expressed in human NCI-H1299 cells expressing FLAG-tagged tau assessed as reduction in tau T212 phosphorylation at 1 to 10 uM incubated for 2 hrs by Western blot analysis
- Format: cell-based
Activity calls are given as the source filed them. The rule behind the calls is not given here.
readoutName: inhibition

INSERT INTO results (itemsmiles, readoutname, result) VALUES
  ('Nc1cccc(-c2cnc3[nH]cc(-c4cccnc4)c3c2)c1', 'inhibition', 'Dose-dependent effect'),
  ('NS(=O)(=O)c1ccc(-c2cnc3[nH]cc(-c4cccnc4)c3c2)cc1', 'inhibition', 'Dose-dependent effect'),
  ('COc1cc(N2CCN(C)CC2)ccc1Nc1nc(N)c(C(=O)c2ccccc2)s1', 'inhibition', 'Dose-dependent effect'),
  ('COc1ccc(N)cc1-c1cnc(N)c(C(=O)c2cccnc2)n1', 'inhibition', 'Active'),
  ('C=CC(=O)Nc1ccc(C(=O)c2sc(Nc3ccc(N4CCN(C)CC4)cc3OC)nc2N)cc1', 'inhibition', 'Dose-dependent effect'),
  ('O=C(NCCN1CCOCC1)Nc1cccc(-c2ccc3nc(NC(=O)C4CC4)sc3n2)c1', 'inhibition', 'Active'),
  ('CN1C(=O)[C@H]2CCC[C@H]2N(C2CCCC2)c2nc(Nc3ccc(C(N)=O)cc3)ncc21', 'inhibition', 'Active'),
  ('C=CC(=O)Nc1cccc(C(=O)c2sc(Nc3ccc(N4CCN(C)CC4)cc3)nc2N)c1', 'inhibition', 'Active'),
  ('O=c1ccc2cnc3ccc(-c4cn[nH]c4)cc3c2n1-c1ccc(F)cc1C(F)(F)F', 'inhibition', 'Active');
